# TEST: NCI Yeast Anticancer Drug Screen. Data for the mlh1 rad18 strain (AID 175)
# SETUP CONDITIONS: S. cerevisiae mlh1 rad18 strain growth inhibition; at 50.0 µM; hits give high values
The panel holds about 79,000 compounds, 15% with a hit somewhere; the sample as a whole holds those more often.
A collection of compounds and their measured growth inhibition

{"COMPOUND": "COCC/C=C/CCl", "growth inhibition, %": 5.1}
{"COMPOUND": "O=C(CNc1ccc(Cl)cc1Cl)NC1C=Cc2ccc(S(=O)(=O)Nc3ccc(Cl)cc3Cl)cc2C1=O (centres undefined)", "growth inhibition, %": 33.1}
{"COMPOUND": "COC(=O)C1OC(O[C@H]2CC[C@]3(C)[C@H]4CC=C5[C@@H]6CC(C)(C)CC[C@]6(C(=O)OC6OCC(O)C(O)C6OC6OC(C)C(OC7OCC(O)C(O)C7O)C(OC7OCC(O)(CO)C7O)C6O)[C@H](O)C[C@@]5(C)[C@]4(C)CC[C@H]3C2(C)C)C(O)C(O)C1O (some centres undefined)", "growth inhibition, %": 10.3}
{"COMPOUND": "Cc1ccc(S(=O)(=O)CC(=O)CC(=O)C(=O)Nc2ccc(Cl)cc2C)cc1", "growth inhibition, %": 27.3}
